Value source: patent US20240293367A1

- test summary: Phase I/IIa clinical PK of oral psilocin-d10, plasma, noncompartmental analysis (Cohorts 1-6)
- Type: in vivo, human
- condition parameters: human, plasma, po, 16 mg, 16 mg oral, Cohort 6 MDD, Day 1 and Day 22, all subjects incl. 3 with emesis; read-out: Cmax Mean (SD)

>  <compound>
[2H]C([2H])([2H])N(C([2H])([2H])[2H])C([2H])([2H])C([2H])([2H])c1c[nH]c2cccc(O)c12 [psilocin-d10]

>  <units label>
ng/mL

>  <Cmax>
19.8

$$$$

---

- test summary: Phase I/IIa clinical PK of oral psilocin-d10, plasma, noncompartmental analysis (Cohorts 1-6)
- Type: in vivo, human
- condition parameters: human, plasma, po, 12 mg, 12 mg oral, Cohort 4 MDD, Day 1 and Day 22; read-out: AUC0-inf Mean (SD)
assay endpoint: AUC(0-inf) (ng·h/mL)

>  <smiles str>
[2H]C([2H])([2H])N(C([2H])([2H])[2H])C([2H])([2H])C([2H])([2H])c1c[nH]c2cccc(O)c12

>  <recorded number>
165

$$$$
